# Measured target: T1, human CD33 (human, UniProt P20138 18-364)
# T1 construct: Endogenous on HL-60 and HEL 92.1.7 AML cells, or recombinant on transfected HEK293F cells; The signal peptide is stated as amino acids 1-17; also called hCD33
# T1 sequence (P20138 18-364): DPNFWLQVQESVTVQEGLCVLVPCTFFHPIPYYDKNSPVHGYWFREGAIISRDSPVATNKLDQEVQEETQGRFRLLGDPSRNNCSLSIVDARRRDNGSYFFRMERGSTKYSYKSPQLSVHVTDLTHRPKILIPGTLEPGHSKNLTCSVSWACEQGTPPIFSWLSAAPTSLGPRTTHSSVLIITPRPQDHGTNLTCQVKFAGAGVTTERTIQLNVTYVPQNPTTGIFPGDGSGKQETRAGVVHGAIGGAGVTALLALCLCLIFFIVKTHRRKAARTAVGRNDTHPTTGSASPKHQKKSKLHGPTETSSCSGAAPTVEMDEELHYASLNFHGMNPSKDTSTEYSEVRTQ
# Assay explanation: flow cytometry on HEL 92.1.7 cells; competition with 1 nM AlexaFluor-647 m2H12 (methods paragraph 148)
Parameter: EC50. Scope: all listed entries.
Please give a number only; it is taken to be in nM.

- Binder: "murine mAb 2H12 (antibody, V domains shown, Murine monoclonal antibody from Balb/c mice; also called m2H12; murine 2H12 antibody) VH: QVQLQQSGPELVRPGTFVKISCKASGYTFTNYDINWVNQRPGQGLEWIGWIYPGDGSTKYNEKFKAKATLTADKSSSTAYLQLNNLTSENSAVYFCASGYEDAMDYWGQGTSVTVSS VL: DIKMTQSPSSMYASLGERVIINCKASQDINSYLSWFQQKPGKSPKTLIYRANRLVDGVPSRFSGSGSGQDYSLTISSLEYEDMGIYYCLQYDEFPLTFGAGTKLELK"
  EC50 [nM]: 5.4

Q. Provide only the value of recorded EC50 for HCLE (antibody, V domains shown, Humanized antibody, heavy chain HC with light chain LE) VH: QVQLVQSGAEVKKPGASVKVSCKASGYTFTNYDINWVRQAPGQGLEWMGWIYPGDGSTKYNEKFKARVTMTTDTSTSTAYMELRSLRSDDTAVYYCASGYEDAMDYWGQGTTVTVSS VL: DIQMTQSPSSLSASVGDRVTITCKASQDINSYLSWFQQKPGKAPKSLIYRANRLVDGVPSRFSGSGSGTDYTLTISSLQPEDFATYYCLQYDEFPLTFGGGTKVEIK
A. 12.8
